activity change, negative = inhibition: recorded values
Test: NFAT Signaling Pathway (AID 444);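 further: carbachol stimulus at about its EC50 of 1 µM final; on the % scale 0 is the no-effect control and ±100 the full control effect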
Conditions: Jurkat NFAT-bla M1, carbachol, beta-lactamase ratio, 5 h; at 7.69 µM (top of the series) unless noted
Records with an inconclusive call do not appear. Residues, ends and D or L forms follow the SMILES beside them.
assay_readout: activity change, negative = inhibition (%)

>  <molecule>
Cc1ncc(CN=Cc2ccc(Cl)cc2)c(N)n1

>  <u>
%

>  <quantitative_readout>
23.1

$$$$
>  <molecule>
Cc1nc2sc3c(c2c(=O)[nH]1)CCCC3

>  <u>
%

>  <quantitative_readout>
-6.08

$$$$
>  <molecule>
Nc1ccn([C@H]2O[C@H](CO)[C@@H]3[O][Sn]([c]4ccccc4)([c]4ccccc4)[O][C@H]32)c(=O)n1

>  <u>
%

>  <quantitative_readout>
-9.06

$$$$
>  <molecule>
C[C@@]12CCC(=O)C=C1CC[C@H]1[C@@H]2[C@@H](O)C[C@]2(C)[C@@H]1CC[C@@]2(O)C(=O)COC(=O)C1CCCC1

>  <u>
%

>  <quantitative_readout>
4.12

$$$$
>  <molecule>
N[C@H](CO)C(=O)NCC(=O)O (HELM PEPTIDE1{[dS].G}$$$$V2.0)

>  <u>
%

>  <quantitative_readout>
13.2

$$$$
>  <molecule>
Nc1[nH]c(=O)nc2c1ncn2[C@H]1O[C@@H](CO)[C@@H](O)[C@@H]1O

>  <u>
%

>  <quantitative_readout>
15.7

$$$$
>  <molecule>
N[C@@H](CSc1nc2ccccn2c1[N+](=O)[O-])C(=O)O

>  <u>
%

>  <quantitative_readout>
9.56

$$$$
>  <molecule>
Nc1nc(N)c2[nH]cnc2n1 (tested in a mixture with another compound)

>  <u>
%

>  <quantitative_readout>
20.2

$$$$
>  <molecule>
COc1c(NC(C)=O)c2ccccc2c2ccccc12

>  <u>
%

>  <quantitative_readout>
-6.36

$$$$
>  <molecule>
CCOC(=O)c1c(O)[nH]c(=O)c(CC)c1C

>  <u>
%

>  <quantitative_readout>
-3.29

$$$$
>  <molecule>
Cc1cc(OCC(=O)O)c(Cl)cc1Cl

>  <u>
%

>  <quantitative_readout>
2.25

$$$$
>  <molecule>
O=C(O)[C@@H]1CS[C@@]2(CCCN(Cc3ccccc3)C2)N1

>  <u>
%

>  <quantitative_readout>
18.2

$$$$
>  <molecule>
O=C(O)[C@H]1CCCC[C@@H]1c1c2ccc(=O)c(O)c-2oc2c(O)c(O)ccc12

>  <u>
%

>  <quantitative_readout>
0.0388

$$$$
